Quick list: PBM binding z-score per entry.
# Test system: RARg:RXRa (NR concentration 270 nM, RXRa partner concentration 90 nM)
# experiment: PBM binding z-score (relative to random genomic background probes); higher = stronger binding; sequences stand for … in GC…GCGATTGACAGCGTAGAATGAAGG

The examples below pair each entry with its known result.
Known value: RARg:RXRa (NR concentration 270 nM, RXRa partner concentration 90 nM) PBM binding z-score of the sequence TCTTGTAGATCAAGCAGGGTAAGAAAGCCTGAGT equals -0.27

Known value: RARg:RXRa (NR concentration 270 nM, RXRa partner concentration 90 nM) PBM binding z-score of the sequence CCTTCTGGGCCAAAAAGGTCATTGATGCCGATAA equals 4.63

Known value: RARg:RXRa (NR concentration 270 nM, RXRa partner concentration 90 nM) PBM binding z-score of the sequence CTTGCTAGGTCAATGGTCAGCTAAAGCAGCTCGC equals 3.48

Known value: RARg:RXRa (NR concentration 270 nM, RXRa partner concentration 90 nM) PBM binding z-score of the sequence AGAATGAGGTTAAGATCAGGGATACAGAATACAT equals 2.17

Continuing:
Known value: RARg:RXRa (NR concentration 270 nM, RXRa partner concentration 90 nM) PBM binding z-score of the sequence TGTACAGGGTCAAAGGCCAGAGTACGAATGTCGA equals 5.52

Known value: RARg:RXRa (NR concentration 270 nM, RXRa partner concentration 90 nM) PBM binding z-score of the sequence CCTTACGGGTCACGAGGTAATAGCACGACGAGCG equals 5.87

* * *

# Tested on: PPARg:RXRa 270nM:90nM, anti-RXR (NR concentration 270 nM, RXRa partner concentration 90 nM)
# experiment: PBM binding z-score (relative to random genomic background probes); higher = stronger binding; sequences stand for … in GC…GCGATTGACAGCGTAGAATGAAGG
recorded.endpoint: PBM binding z-score
The response must contain the number and no unit.

Entry under test: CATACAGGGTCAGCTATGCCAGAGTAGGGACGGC . Its PBM binding z-score was 2.58

Entry under test: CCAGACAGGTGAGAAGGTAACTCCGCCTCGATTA . Its PBM binding z-score was 0.504

Entry under test: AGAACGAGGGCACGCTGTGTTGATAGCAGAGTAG . Its PBM binding z-score was 1.81

Continuing:
Entry under test: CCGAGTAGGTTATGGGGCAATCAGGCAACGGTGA . Its PBM binding z-score was 4.62

Entry under test: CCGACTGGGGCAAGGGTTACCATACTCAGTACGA . Its PBM binding z-score was 7.56

Entry under test: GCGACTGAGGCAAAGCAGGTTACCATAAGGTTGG . Its PBM binding z-score was -0.42

* * *

# Tested on: RARa:RXR (NR concentration 270 nM, RXRa partner concentration 90 nM)
# experiment: PBM binding z-score (relative to random genomic background probes); higher = stronger binding; sequences stand for … in GC…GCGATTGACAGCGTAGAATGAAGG
Record Yes whenever PBM binding z-score is at 3 or higher; record No when lower.

# example entries with known answers
stdin: Dear colleague, could you confirm whether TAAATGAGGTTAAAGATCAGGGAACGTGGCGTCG has PBM binding z-score at or above 3?
stdout: Yes

stdin: Dear colleague, could you confirm whether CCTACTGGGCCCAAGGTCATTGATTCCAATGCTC has PBM binding z-score at or above 3?
stdout: Yes

stdin: Dear colleague, could you confirm whether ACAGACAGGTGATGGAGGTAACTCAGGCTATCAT has PBM binding z-score at or above 3?
stdout: No

stdin: Dear colleague, could you confirm whether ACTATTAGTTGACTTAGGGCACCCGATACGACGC has PBM binding z-score at or above 3?
stdout: No

stdin: Dear colleague, could you confirm whether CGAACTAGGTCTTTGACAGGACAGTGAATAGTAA has PBM binding z-score at or above 3?
stdout: No

Continuing:
stdin: Dear colleague, could you confirm whether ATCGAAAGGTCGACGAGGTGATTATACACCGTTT has PBM binding z-score at or above 3?
stdout: Yes

* * *

# System: LXRb:RXRa (NR concentration 270 nM, RXRa partner concentration 90 nM)
# experiment: PBM binding z-score (relative to random genomic background probes); higher = stronger binding; sequences stand for … in GC…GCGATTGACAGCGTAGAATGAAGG
recorded.endpoint: PBM binding z-score
The response must contain the number and no unit.

The examples below pair each entry with its known result.
Entry under test: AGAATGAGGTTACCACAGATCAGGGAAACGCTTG . Its PBM binding z-score was 3.08

Entry under test: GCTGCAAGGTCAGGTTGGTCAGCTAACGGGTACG . Its PBM binding z-score was 2.36

Entry under test: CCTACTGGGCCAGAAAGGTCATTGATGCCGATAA . Its PBM binding z-score was 4.16

Entry under test: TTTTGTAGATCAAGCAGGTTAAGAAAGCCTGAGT . Its PBM binding z-score was 0.194

Entry under test: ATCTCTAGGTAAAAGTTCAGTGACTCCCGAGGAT . Its PBM binding z-score was 1.38

Entry under test: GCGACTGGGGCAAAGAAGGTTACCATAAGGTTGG . Its PBM binding z-score was 1.06

Entry under test: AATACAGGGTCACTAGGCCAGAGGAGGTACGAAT . Its PBM binding z-score was 3.62

Entry under test: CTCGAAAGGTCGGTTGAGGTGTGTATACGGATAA . Its PBM binding z-score was 1.05

Entry under test: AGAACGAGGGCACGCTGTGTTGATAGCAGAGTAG . Its PBM binding z-score was 0.159

Entry under test: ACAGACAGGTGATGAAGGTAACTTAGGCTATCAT . Its PBM binding z-score was 0.0367

Continuing:
Entry under test: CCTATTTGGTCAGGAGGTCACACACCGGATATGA . Its PBM binding z-score was 3.64

Entry under test: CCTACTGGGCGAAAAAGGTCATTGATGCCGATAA . Its PBM binding z-score was 3.91

* * *

# System: PPARg:RXRa IVT, anti-PPARg (NR concentration 270 nM, RXRa partner concentration 90 nM)
# experiment: PBM binding z-score (relative to random genomic background probes); higher = stronger binding; sequences stand for … in GC…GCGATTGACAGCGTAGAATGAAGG
Record 1.0 whenever PBM binding z-score is at 2 or higher; record 0.0 when lower.

stdin: Dear colleague, could you confirm whether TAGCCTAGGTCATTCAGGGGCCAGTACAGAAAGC has PBM binding z-score at or above 2?
stdout: 1.0

stdin: Dear colleague, could you confirm whether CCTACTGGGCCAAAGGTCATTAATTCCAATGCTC has PBM binding z-score at or above 2?
stdout: 1.0

stdin: Dear colleague, could you confirm whether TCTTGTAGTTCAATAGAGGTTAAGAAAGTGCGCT has PBM binding z-score at or above 2?
stdout: 0.0

stdin: Dear colleague, could you confirm whether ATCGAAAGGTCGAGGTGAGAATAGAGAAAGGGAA has PBM binding z-score at or above 2?
stdout: 1.0

stdin: Dear colleague, could you confirm whether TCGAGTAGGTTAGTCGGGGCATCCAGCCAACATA has PBM binding z-score at or above 2?
stdout: 1.0

Continuing:
stdin: Dear colleague, could you confirm whether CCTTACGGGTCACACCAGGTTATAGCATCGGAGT has PBM binding z-score at or above 2?
stdout: 1.0

stdin: Dear colleague, could you confirm whether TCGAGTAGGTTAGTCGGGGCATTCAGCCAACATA has PBM binding z-score at or above 2?
stdout: 0.0

stdin: Dear colleague, could you confirm whether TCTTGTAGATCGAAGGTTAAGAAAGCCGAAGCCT has PBM binding z-score at or above 2?
stdout: 0.0

stdin: Dear colleague, could you confirm whether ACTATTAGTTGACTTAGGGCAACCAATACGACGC has PBM binding z-score at or above 2?
stdout: 0.0

stdin: Dear colleague, could you confirm whether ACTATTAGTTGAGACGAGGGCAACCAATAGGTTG has PBM binding z-score at or above 2?
stdout: 0.0

stdin: Dear colleague, could you confirm whether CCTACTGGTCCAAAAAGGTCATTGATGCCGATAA has PBM binding z-score at or above 2?
stdout: 0.0

stdin: Dear colleague, could you confirm whether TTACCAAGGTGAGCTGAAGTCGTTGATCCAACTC has PBM binding z-score at or above 2?
stdout: 0.0

* * *

Quick list: PBM binding z-score per entry.
# Test system: PPARa:RXRa (NR concentration 270 nM, RXRa partner concentration 90 nM)
# experiment: PBM binding z-score (relative to random genomic background probes); higher = stronger binding; sequences stand for … in GC…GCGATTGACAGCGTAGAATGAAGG
The response must contain the number and no unit.

The examples below pair each entry with its known result.
Entry under test: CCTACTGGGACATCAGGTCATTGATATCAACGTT . Its PBM binding z-score was 2.67

Entry under test: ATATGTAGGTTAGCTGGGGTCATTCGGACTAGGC . Its PBM binding z-score was 5.11

Continuing:
Entry under test: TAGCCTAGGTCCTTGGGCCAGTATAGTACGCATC . Its PBM binding z-score was -1.2

Entry under test: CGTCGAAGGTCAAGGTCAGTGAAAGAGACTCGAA . Its PBM binding z-score was 6.39

Entry under test: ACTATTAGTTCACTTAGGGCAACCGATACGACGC . Its PBM binding z-score was 0.893

Entry under test: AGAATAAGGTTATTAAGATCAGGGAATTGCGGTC . Its PBM binding z-score was 2.42

Entry under test: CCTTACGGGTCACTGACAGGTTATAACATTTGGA . Its PBM binding z-score was 5.18

Entry under test: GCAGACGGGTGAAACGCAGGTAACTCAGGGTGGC . Its PBM binding z-score was 0.266

Entry under test: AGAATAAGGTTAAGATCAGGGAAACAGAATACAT . Its PBM binding z-score was 3.06

Entry under test: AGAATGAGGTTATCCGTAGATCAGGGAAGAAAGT . Its PBM binding z-score was 3.44

Entry under test: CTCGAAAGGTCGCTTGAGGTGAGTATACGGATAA . Its PBM binding z-score was 4.15
